# assayed system: ABCA1 (Mus musculus)
# Construct: treated (18 h) with a cAMP analog to induce ABCA1 protein expression; endogenous in cells; host or cells: J774 macrophages
# Sequence (P41233 whole entry): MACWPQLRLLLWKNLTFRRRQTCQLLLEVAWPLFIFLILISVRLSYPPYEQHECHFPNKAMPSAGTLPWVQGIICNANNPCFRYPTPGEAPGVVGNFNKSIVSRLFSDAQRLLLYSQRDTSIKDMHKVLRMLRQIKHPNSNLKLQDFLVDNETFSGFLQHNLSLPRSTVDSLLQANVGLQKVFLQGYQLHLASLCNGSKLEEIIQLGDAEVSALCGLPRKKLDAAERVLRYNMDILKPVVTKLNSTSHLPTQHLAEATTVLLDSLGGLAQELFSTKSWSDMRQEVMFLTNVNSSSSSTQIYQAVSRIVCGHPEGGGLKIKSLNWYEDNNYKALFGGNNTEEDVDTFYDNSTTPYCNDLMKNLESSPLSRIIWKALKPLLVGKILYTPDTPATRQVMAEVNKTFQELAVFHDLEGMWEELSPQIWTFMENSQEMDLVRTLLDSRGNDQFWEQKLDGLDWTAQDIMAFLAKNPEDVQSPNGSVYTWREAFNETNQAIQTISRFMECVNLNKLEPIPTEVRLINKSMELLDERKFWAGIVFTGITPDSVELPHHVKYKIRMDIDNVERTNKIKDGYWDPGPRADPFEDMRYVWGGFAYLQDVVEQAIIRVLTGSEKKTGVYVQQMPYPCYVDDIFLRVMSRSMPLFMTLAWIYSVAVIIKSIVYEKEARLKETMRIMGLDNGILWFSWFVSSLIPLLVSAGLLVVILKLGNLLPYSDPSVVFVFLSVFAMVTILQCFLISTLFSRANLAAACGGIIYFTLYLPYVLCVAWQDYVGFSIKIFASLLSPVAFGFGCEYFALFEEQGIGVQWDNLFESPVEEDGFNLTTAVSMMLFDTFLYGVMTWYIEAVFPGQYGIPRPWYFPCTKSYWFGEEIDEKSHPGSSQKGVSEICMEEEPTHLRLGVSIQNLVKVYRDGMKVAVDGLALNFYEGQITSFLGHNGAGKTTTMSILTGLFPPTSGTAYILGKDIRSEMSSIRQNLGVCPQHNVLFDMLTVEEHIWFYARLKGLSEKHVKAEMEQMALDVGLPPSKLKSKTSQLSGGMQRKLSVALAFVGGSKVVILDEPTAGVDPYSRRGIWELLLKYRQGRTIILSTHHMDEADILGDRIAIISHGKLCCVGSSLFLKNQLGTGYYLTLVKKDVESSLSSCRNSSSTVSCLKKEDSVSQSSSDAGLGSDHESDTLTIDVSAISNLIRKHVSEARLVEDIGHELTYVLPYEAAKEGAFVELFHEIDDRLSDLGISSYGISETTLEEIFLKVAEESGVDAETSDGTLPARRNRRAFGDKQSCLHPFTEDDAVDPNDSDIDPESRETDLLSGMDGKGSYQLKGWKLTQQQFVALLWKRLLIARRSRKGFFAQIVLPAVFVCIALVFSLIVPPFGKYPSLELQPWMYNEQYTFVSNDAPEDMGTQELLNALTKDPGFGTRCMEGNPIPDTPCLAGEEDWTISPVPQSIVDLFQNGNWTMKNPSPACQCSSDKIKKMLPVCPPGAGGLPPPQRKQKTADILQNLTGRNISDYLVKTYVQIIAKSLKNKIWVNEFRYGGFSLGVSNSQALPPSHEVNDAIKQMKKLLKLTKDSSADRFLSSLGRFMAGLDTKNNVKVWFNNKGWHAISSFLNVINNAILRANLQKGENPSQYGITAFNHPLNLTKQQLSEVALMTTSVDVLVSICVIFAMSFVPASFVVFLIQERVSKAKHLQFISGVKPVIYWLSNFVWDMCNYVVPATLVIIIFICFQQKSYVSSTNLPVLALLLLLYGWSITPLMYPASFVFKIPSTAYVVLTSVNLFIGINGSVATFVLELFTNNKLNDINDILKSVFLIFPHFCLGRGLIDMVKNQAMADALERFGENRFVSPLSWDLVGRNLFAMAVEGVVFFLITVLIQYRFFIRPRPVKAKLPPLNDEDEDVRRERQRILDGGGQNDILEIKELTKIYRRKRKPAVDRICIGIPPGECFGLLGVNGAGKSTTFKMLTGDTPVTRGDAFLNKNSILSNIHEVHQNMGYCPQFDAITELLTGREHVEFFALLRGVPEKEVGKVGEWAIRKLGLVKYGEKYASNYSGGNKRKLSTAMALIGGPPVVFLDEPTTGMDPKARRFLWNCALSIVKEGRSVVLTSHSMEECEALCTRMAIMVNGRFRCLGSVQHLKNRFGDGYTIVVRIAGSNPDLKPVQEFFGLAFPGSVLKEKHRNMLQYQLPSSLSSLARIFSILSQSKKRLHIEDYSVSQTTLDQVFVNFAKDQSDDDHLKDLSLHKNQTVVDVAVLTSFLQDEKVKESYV
# measurement notes: ABCA1-dependent cholesterol efflux from [3H]cholesterol-labeled J774 macrophages with and without cAMP
# Type: cell-based
# test context: cAMP treated J774, dose response, 4 h
Non-standard residues stand in square brackets, D forms with d. No end group written: not given here. Cit = NC(=O)NCCC[C@H](N)C(=O)O
measured attribute: peptide concentration at saturation of cholesterol efflux (µg/mL)

T7983-11: Y26 analog of T6991-2 (S26→Y for 125I labeling) (EV[Cit]SKLEEWIAAI[Cit]EIAEEILARLKY) [Peptide T7983-11] :: 3
T6275-5: citrulline form of LeuATI-5261 with single citrulline14→L substitution (EV[Cit]SKLEEWLAALLELAEELLARLKS) [Peptide T6275-5] :: 3

The measurements presented in this section are drawn from patent US11434267B2.
